Each recorded value in this set is attributed to ChEMBL document CHEMBL4138211.

Test system: MCF7
test: Induction of apoptosis in human MCF7 cells assessed as damaged cell membranes by acridine orange/ethidium bromide staining-based fluorescence microscopic analysis
Type: functional
Calls of active or inactive are those of the source. The rule behind the calls is not given here.
Choose one outcome from this list and give only that: active, inactive

chem.smiles | label
Cc1ccc2[nH]c3c(c2c1)CC[C@]1(C3=O)[C@@H](c2ccccc2)[C@@H](c2ccccc2)N[C@@]12C(=O)Nc1ccccc12 | inactive
O=C1Nc2ccccc2[C@]12N[C@H](c1ccccc1)[C@H](c1cccs1)[C@@]21CCc2c([nH]c3ccccc23)C1=O | inactive
O=C1Nc2ccccc2[C@]12N[C@H](c1ccccc1)[C@H](c1ccccc1)[C@@]21CCc2c([nH]c3ccc(Cl)cc23)C1=O | inactive
COc1ccc([C@H]2[C@@H](c3ccccc3)N[C@@]3(C(=O)Nc4ccccc43)[C@]23CCc2c([nH]c4ccc(C)cc24)C3=O)cc1 | inactive
Cc1ccc2[nH]c3c(c2c1)CC[C@]1(C3=O)[C@@H](c2cccs2)[C@@H](c2ccccc2)N[C@@]12C(=O)Nc1ccccc12 | active
O=C1Nc2ccccc2[C@]12N[C@H](c1ccccc1)[C@H](c1cccs1)[C@@]21CCc2c([nH]c3ccc(Cl)cc23)C1=O | active
O=C1Nc2ccccc2[C@]12N[C@H](c1ccccc1)[C@H](c1ccccc1)[C@@]21CCc2c([nH]c3ccccc23)C1=O | inactive

Task: Could you please tell me the result logged for `COc1ccc([C@H]2[C@@H](c3ccccc3)N[C@@]3(C(=O)Nc4ccccc43)[C@]23CCc2c([nH]c4ccc(Cl)cc24)C3=O)cc1` in this assay?
Output: inactive
